B1: Zinc finger homeobox protein 4, residues 2183 to 2238; numbered along this chain, Q86UP3 (parent)
chain: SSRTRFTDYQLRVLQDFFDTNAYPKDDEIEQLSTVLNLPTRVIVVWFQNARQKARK

variants of: B1; assay: abundance fitness (aPCA) (normalised: wild type 0, dead -1); higher = more abundant; growth selection in yeast, the domain comes from the species named; details: Homo sapiens
Please enter rule met where abundance fitness is greater than or equal to -0.1, and rule not met where it is lower.

Solved cases (5 shown):
mutant-id: P24N
answer-label: rule not met
--
mutant-id: S2C
answer-label: rule met
--
mutant-id: D16G
answer-label: rule met
--
mutant-id: F17K
answer-label: rule met
--
mutant-id: F6V
answer-label: rule not met

# input Is abundance fitness at least -0.1? Consider "D27Y"
# output rule not met

# input Repeat with "Q31N"
# output rule not met

# input Proceed to "V35Q"
# output rule met

# input Next variant up: "N21H"
# output rule not met

# input What do we get for "D26A" ?
# output rule met

# input For "T4L" then?
# output rule met

# input Also need "T20S" , thanks.
# output rule met

# input "L32I" , same question.
# output rule not met

# input What do you get for "T4W" ?
# output rule not met

# input Repeat with "T34G"
# output rule not met

# input Subsequent entry: "V13A"
# output rule met

# input Also "L11I" , if possible.
# output rule met

# input // repeat for "A22S" and report
# output rule met

# input Lookup "D27L"
# output rule met

# input For "F6I" then?
# output rule met

# input And the next one, "D27G" ?
# output rule met

# input Thanks! And "E28Q" ?
# output rule met
